tested.system: HDAC11 (Homo sapiens, UniProt Q96DB2)
Sequence (Q96DB2 whole entry, species assumed): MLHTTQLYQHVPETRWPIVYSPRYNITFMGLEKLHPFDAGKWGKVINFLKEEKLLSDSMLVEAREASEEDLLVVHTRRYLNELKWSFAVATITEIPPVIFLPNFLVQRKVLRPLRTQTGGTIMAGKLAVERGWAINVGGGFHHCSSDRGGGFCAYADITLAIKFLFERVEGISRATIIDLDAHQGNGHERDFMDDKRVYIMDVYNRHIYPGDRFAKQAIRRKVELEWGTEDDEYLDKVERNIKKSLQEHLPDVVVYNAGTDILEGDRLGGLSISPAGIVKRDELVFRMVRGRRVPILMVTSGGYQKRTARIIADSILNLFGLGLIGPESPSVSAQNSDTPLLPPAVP
pIC50: −log10 of the molar value.
reported.endpoint: pIC50

mol.smiles: CS(C)(=O)=Nc1ccc(C(=O)Nc2cc(-c3ccc(F)cc3)ccc2N)cc1
test.result: < 4.52

====

tested.system: HDAC10 (Homo sapiens, UniProt Q969S8)
Sequence (Q969S8 whole entry, species assumed): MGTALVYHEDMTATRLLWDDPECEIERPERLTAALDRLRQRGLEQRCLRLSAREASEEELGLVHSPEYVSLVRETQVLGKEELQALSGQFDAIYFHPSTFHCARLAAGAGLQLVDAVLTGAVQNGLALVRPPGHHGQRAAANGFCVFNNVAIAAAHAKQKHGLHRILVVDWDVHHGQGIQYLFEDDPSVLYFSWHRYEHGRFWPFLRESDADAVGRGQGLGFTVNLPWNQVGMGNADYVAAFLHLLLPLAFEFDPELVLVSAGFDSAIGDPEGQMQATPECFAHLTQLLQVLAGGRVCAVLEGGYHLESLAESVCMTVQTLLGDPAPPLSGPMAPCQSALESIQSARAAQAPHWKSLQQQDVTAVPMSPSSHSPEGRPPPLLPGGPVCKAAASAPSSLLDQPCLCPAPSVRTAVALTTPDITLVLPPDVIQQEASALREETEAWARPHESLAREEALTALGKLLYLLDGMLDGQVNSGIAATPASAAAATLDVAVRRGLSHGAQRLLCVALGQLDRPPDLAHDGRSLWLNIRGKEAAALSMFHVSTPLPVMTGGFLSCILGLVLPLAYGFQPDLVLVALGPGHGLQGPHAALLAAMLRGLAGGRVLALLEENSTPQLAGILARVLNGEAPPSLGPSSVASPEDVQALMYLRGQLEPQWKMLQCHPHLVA
details: read-out: IC50 HDAC subtype 10; Table 6

molecule: CS(=O)(=O)Nc1ccc(C(=O)Nc2cc(-c3ccc(F)cc3)ccc2N)cc1 [Reference Compound, reference compound]
unit.of.measurement: µM
IC50: 0.0832

====

tested.system: HDAC1 (Homo sapiens)
Sequence (Q13547 whole entry, species assumed): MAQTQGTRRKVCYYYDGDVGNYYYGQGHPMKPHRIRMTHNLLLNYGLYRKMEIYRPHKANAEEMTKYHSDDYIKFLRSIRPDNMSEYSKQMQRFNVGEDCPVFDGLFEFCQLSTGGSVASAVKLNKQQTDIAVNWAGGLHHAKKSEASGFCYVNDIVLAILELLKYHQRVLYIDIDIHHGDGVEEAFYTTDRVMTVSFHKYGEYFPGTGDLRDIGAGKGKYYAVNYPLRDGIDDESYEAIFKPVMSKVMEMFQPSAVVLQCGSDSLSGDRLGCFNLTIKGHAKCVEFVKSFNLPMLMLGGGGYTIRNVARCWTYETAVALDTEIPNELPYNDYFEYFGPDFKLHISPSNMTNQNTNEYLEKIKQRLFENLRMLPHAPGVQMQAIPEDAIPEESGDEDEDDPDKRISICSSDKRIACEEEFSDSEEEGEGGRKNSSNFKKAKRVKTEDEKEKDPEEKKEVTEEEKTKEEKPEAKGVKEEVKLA
assay.comment: HDAC enzyme inhibitory activity, FRET method
Assay type: biochemical
details: Table 6; read-out: IC50 HDAC subtype 1
pIC50: −log10 of the molar value.

molecule: CS(C)(=O)=Nc1ccc(C(=O)Nc2cc(-c3ccc(F)cc3)ccc2N)cc1
pIC50: 7.58

molecule: CS(=O)(=O)Nc1ccc(C(=O)Nc2cc(-c3ccc(F)cc3)ccc2N)cc1 [Reference Compound, reference compound]
pIC50: 7.35

====

assay.comment: Pharmacokinetic experiment in mice
Type: in vivo, CD-1 female mice
details: mouse, plasma, Oral administration (10 mg/kg)

mol.smiles: CS(C)(=O)=Nc1ccc(C(=O)Nc2cc(-c3ccc(F)cc3)ccc2N)cc1
half-life, h: 2.73

====

assay.comment: Stability in liver microsomes
Format: in vitro ADME
details: Mouse liver microsomes
Experimental: After the 1 µM compound was individually incubated at 37 °C for various durations with […] liver microsomes from humans, monkeys, beagles, rats, or mice in the presence of an NADPH regeneration system, LC-MS-MS was used to analyze the remaining amount of the compound, and T1/2 was calculated. Table 10. Evaluation results of stability of compounds of the present disclosure in human and mouse liver microsomes
reported.endpoint: CLint scaled at 1 µM

mol.smiles: CS(C)(=O)=Nc1ccc(C(=O)Nc2cc(-c3ccc(F)cc3)ccc2N)cc1
test.result: 5.55 mL/min/kg
//
mol.smiles: CS(C)(=O)=Nc1ccc(C(=O)Nc2cc(-c3ccc(F)s3)ccc2N)cc1
test.result: 0.45 mL/min/kg
//
mol.smiles: CS(C)(=O)=Nc1ccc(C(=O)Nc2cc(-c3ccc(Cl)cc3)ccc2N)cc1
test.result: 17.8 mL/min/kg
//
mol.smiles: Nc1ccc(-c2ccc(F)cc2)cc1NC(=O)c1ccc(N=S2(=O)CCCC2)cc1
test.result: 33 mL/min/kg

====

tested.system: HDAC4 (Homo sapiens)
Sequence (P56524 whole entry, species assumed): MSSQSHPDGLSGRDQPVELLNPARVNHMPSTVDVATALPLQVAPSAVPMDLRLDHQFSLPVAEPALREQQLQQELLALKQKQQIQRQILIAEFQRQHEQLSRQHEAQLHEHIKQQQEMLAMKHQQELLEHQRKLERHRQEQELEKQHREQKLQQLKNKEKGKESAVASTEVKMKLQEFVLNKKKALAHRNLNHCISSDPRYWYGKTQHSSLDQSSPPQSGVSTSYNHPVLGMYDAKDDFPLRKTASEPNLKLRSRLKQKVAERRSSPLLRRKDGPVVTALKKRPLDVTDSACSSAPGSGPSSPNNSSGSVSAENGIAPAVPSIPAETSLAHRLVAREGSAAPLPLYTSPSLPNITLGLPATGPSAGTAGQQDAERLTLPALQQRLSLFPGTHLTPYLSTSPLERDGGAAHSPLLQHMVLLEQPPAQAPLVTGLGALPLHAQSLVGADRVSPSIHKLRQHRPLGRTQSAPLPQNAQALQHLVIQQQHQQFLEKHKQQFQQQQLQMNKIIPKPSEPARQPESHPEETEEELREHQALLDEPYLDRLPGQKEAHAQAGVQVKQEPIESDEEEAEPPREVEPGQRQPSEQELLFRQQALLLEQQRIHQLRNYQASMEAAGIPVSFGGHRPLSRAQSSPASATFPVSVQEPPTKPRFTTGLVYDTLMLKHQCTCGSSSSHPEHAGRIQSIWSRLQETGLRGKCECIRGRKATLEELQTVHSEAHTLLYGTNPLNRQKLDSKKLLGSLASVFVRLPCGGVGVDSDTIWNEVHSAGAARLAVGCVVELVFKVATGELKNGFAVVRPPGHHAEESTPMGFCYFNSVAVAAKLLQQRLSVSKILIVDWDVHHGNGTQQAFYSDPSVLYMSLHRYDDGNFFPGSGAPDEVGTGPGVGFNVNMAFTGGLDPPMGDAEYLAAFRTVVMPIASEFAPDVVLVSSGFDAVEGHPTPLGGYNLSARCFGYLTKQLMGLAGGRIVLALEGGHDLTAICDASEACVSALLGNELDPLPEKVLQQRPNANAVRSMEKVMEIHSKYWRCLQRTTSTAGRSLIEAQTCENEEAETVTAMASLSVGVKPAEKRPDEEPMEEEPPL
pIC50: −log10 of the molar value.
reported.endpoint: pIC50

mol.smiles: CS(C)(=O)=Nc1ccc(C(=O)Nc2cc(-c3ccc(F)cc3)ccc2N)cc1
test.result: < 4.52

====

tested.system: HDAC2 (Homo sapiens)
Sequence (Q92769 whole entry, species assumed): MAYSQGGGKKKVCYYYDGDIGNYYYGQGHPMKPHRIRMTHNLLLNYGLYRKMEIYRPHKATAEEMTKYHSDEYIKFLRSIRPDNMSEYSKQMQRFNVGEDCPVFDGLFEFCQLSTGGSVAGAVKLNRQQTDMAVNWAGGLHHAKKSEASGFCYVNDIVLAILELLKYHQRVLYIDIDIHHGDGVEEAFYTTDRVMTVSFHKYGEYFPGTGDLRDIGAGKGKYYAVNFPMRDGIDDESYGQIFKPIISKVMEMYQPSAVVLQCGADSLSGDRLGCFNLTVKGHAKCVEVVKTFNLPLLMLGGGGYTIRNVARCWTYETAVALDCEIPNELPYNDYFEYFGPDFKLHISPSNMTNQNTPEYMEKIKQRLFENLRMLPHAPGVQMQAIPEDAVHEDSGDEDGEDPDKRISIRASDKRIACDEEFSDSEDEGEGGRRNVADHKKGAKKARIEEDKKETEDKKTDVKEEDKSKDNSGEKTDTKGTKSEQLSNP
assay.comment: HDAC enzyme inhibitory activity, FRET method
Assay type: biochemical
details: Table 6; read-out: IC50 HDAC subtype 2

molecule: CS(C)(=O)=Nc1ccc(C(=O)Nc2cc(-c3ccc(F)cc3)ccc2N)cc1
tested.system: HDAC2 (Homo sapiens)
IC50 [µM]: 0.141
//
molecule: CS(=O)(=O)Nc1ccc(C(=O)Nc2cc(-c3ccc(F)cc3)ccc2N)cc1 [Reference Compound, reference compound]
tested.system: HDAC2 (Homo sapiens)
IC50 [µM]: 0.178

====

Listing of recorded IC50 by entry.
tested.system: UniProtKB Q13547
assay.comment: HDAC enzyme inhibitory activity, FRET method
Assay type: biochemical
details: Table 5; read-out: IC50 HDAC1
reported.endpoint: IC50

mol.smiles: Nc1ccc(-c2ccc(F)cc2)cc1NC(=O)c1ccc(N=S2(=O)CCC2)cc1
reported.endpoint: IC50
test.result: < 30 nM
//
mol.smiles: Nc1ccc(-c2ccc(F)cc2)cc1NC(=O)c1ccc(N=S2(=O)CCOCC2)cc1
reported.endpoint: IC50
test.result: < 30 nM
//
mol.smiles: CS(C)(=O)=Nc1ccc(C(=O)Nc2cc(-c3ccc(F)s3)ccc2N)cc1
reported.endpoint: IC50
test.result: < 30 nM
//
mol.smiles: Nc1ccc(-c2ccc(F)cc2)cc1NC(=O)c1ccc(N=S2(=O)CC3(CNC3)C2)cc1
reported.endpoint: IC50
test.result: < 30 nM

====

assay.comment: Pharmacokinetic experiment in mice
Type: in vivo, CD-1 female mice
details: mouse, plasma, Oral administration (10 mg/kg)
Experimental: CD-1 female mice aged 7 to 10 weeks were intravenously administered and orally administered at doses of 1 mg/kg and 10 mg/kg, respectively. The mice were fasted for at least 12 h before the administration and given food 4 h after the administration, and they were given ad libitum access to water during the experiment. […]
reported.endpoint: Cmax (ng/mL)

mol.smiles: CS(C)(=O)=Nc1ccc(C(=O)Nc2cc(-c3ccc(F)cc3)ccc2N)cc1
test.result: 1370

====

assay.comment: Pharmacokinetic experiment in mice
Format: in vivo, CD-1 female mice
details: mouse, plasma, Injection (1 mg/kg), intravenous, read-out: Vdss

compound: CS(C)(=O)=Nc1ccc(C(=O)Nc2cc(-c3ccc(F)cc3)ccc2N)cc1 [Compound 1]
Vd (L/kg): 1.68

====

assay.comment: Stability in liver microsomes
Assay type: in vitro ADME
details: Human liver microsomes, 1 µM compound, 37 °C, NADPH regeneration system
Listing of recorded half-life at 1 µM by entry.
reported.endpoint: half-life at 1 µM (h)

molecule: CS(C)(=O)=Nc1ccc(C(=O)Nc2cc(-c3ccc(F)s3)ccc2N)cc1 [Compound 33]
unit.of.measurement: h
test.result: 3.51
--
molecule: CS(C)(=O)=Nc1ccc(C(=O)Nc2cc(-c3ccc(F)cc3)ccc2N)cc1 [Compound 1]
unit.of.measurement: h
test.result: 1.67
--
molecule: CS(C)(=O)=Nc1ccc(C(=O)Nc2cc(-c3ccc(Cl)cc3)ccc2N)cc1 [Compound 3]
unit.of.measurement: h
test.result: 15.7
--
molecule: Nc1ccc(-c2ccc(F)cc2)cc1NC(=O)c1ccc(N=S2(=O)CCCC2)cc1 [Compound 57]
unit.of.measurement: h
test.result: 3.86

====

tested.system: HDAC6 (Homo sapiens)
Sequence (Q9UBN7 whole entry, species assumed): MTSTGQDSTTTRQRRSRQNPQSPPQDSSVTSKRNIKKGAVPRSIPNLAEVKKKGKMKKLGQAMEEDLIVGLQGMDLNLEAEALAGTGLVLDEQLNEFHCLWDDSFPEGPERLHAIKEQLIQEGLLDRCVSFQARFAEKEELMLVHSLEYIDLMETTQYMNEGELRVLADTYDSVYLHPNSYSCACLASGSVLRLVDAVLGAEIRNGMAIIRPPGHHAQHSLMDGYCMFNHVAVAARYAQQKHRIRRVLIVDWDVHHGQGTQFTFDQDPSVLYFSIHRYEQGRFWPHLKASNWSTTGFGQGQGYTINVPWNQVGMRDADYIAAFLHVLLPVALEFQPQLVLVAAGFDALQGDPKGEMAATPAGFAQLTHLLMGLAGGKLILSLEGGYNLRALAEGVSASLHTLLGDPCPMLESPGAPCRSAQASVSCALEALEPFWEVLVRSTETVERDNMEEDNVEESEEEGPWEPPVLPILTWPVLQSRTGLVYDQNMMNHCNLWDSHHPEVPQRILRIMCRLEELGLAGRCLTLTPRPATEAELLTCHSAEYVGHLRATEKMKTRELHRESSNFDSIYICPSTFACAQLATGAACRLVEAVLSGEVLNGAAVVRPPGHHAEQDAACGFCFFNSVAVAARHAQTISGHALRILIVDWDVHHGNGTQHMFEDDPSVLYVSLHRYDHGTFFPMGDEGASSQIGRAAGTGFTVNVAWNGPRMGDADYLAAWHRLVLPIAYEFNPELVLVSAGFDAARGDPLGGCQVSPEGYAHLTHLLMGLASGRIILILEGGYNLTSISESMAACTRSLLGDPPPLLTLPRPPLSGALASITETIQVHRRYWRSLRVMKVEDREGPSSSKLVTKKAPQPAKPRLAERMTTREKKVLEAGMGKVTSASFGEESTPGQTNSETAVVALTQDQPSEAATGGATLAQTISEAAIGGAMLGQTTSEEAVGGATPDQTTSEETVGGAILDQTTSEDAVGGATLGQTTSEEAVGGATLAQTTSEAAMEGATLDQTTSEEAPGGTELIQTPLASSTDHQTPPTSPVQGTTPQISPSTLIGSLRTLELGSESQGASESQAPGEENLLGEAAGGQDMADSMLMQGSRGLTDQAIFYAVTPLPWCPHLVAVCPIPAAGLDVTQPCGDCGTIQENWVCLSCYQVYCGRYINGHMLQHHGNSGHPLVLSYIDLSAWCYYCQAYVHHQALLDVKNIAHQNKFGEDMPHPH
pIC50: −log10 of the molar value.
reported.endpoint: pIC50

mol.smiles: CS(C)(=O)=Nc1ccc(C(=O)Nc2cc(-c3ccc(F)cc3)ccc2N)cc1
reported.endpoint: pIC50
test.result: < 4.52

====

assay.comment: Stability in liver microsomes
Type: in vitro ADME
details: Human liver microsomes
Clliver under 0.4 L/h/kg gets MET, anything at or over 0.4 L/h/kg gets NOT MET.

compound: Nc1ccc(-c2ccc(F)cc2)cc1NC(=O)c1ccc(N=S2(=O)CCCC2)cc1
assigned.category: MET

compound: CS(C)(=O)=Nc1ccc(C(=O)Nc2cc(-c3ccc(Cl)cc3)ccc2N)cc1
assigned.category: MET

compound: CS(C)(=O)=Nc1ccc(C(=O)Nc2cc(-c3ccc(F)cc3)ccc2N)cc1
assigned.category: NOT MET

compound: CS(=O)(=O)Nc1ccc(C(=O)Nc2cc(-c3ccc(F)cc3)ccc2N)cc1 [Reference Compound, reference compound]
assigned.category: NOT MET

compound: CS(C)(=O)=Nc1ccc(C(=O)Nc2cc(-c3ccc(F)s3)ccc2N)cc1
assigned.category: MET

====

assay.comment: Stability in liver microsomes
Assay type: in vitro ADME
details: Mouse liver microsomes

compound: Nc1ccc(-c2ccc(F)cc2)cc1NC(=O)c1ccc(N=S2(=O)CCCC2)cc1
Clliver / mL/min/kg: 24.16

compound: CS(C)(=O)=Nc1ccc(C(=O)Nc2cc(-c3ccc(F)cc3)ccc2N)cc1
Clliver / mL/min/kg: 5.23

compound: CS(=O)(=O)Nc1ccc(C(=O)Nc2cc(-c3ccc(F)cc3)ccc2N)cc1 [Reference Compound, reference compound]
Clliver / mL/min/kg: 9.20

compound: CS(C)(=O)=Nc1ccc(C(=O)Nc2cc(-c3ccc(F)s3)ccc2N)cc1
Clliver / mL/min/kg: 0.45

compound: CS(C)(=O)=Nc1ccc(C(=O)Nc2cc(-c3ccc(Cl)cc3)ccc2N)cc1
Clliver / mL/min/kg: 14.87

====

tested.system: HDAC3 (Homo sapiens)
Sequence (O15379 whole entry, species assumed): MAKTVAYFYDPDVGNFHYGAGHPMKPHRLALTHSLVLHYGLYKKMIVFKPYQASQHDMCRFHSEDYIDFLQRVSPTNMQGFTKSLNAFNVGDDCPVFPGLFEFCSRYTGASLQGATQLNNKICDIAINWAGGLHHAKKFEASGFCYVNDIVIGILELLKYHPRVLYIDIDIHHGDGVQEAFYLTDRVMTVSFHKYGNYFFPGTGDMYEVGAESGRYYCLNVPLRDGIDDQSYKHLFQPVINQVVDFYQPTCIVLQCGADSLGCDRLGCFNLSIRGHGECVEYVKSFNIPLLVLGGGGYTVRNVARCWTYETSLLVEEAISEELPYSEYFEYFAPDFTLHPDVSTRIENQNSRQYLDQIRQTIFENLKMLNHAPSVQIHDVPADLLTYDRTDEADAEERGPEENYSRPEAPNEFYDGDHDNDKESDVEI
Sequence (Q9Y618 395-489 partner limits assumed, species assumed): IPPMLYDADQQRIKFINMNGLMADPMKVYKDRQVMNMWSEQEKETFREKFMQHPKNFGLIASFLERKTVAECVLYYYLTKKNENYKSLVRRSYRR
assay.comment: HDAC enzyme inhibitory activity, FRET method
Format: biochemical
details: Table 6; read-out: IC50 HDAC subtype 3

molecule: CS(C)(=O)=Nc1ccc(C(=O)Nc2cc(-c3ccc(F)cc3)ccc2N)cc1
IC50 / µM: 5.51

molecule: CS(=O)(=O)Nc1ccc(C(=O)Nc2cc(-c3ccc(F)cc3)ccc2N)cc1 [Reference Compound, reference compound]
IC50 / µM: 8.28

====

assay.comment: Pharmacokinetic experiment in mice
Format: in vivo, CD-1 female mice
details: mouse, plasma, Oral administration (10 mg/kg)
Experimental: CD-1 female mice aged 7 to 10 weeks were intravenously administered and orally administered at doses of 1 mg/kg and 10 mg/kg, respectively. The mice were fasted for at least 12 h before the administration and given food 4 h after the administration, and they were given ad libitum access to water during the experiment. […]

mol.smiles: CS(C)(=O)=Nc1ccc(C(=O)Nc2cc(-c3ccc(F)cc3)ccc2N)cc1
AUC(0-t) / ng·h/mL: 15400

====

assay.comment: Pharmacokinetic experiment in mice
Assay type: in vivo, CD-1 female mice
details: mouse, plasma, Oral administration (10 mg/kg)
reported.endpoint: bioavailability (%)

mol.smiles: CS(C)(=O)=Nc1ccc(C(=O)Nc2cc(-c3ccc(F)cc3)ccc2N)cc1
reported.endpoint: bioavailability
test.result: 67.4
